FYI, the data here is from patent US10029022B2.

I'd be grateful if you could share measured pIC50 for these entries.
Subject Of Test: EGFR (L858R) (Homo sapiens, UniProt P00533, L858R)
Sequence (P00533 25-1210 L858R): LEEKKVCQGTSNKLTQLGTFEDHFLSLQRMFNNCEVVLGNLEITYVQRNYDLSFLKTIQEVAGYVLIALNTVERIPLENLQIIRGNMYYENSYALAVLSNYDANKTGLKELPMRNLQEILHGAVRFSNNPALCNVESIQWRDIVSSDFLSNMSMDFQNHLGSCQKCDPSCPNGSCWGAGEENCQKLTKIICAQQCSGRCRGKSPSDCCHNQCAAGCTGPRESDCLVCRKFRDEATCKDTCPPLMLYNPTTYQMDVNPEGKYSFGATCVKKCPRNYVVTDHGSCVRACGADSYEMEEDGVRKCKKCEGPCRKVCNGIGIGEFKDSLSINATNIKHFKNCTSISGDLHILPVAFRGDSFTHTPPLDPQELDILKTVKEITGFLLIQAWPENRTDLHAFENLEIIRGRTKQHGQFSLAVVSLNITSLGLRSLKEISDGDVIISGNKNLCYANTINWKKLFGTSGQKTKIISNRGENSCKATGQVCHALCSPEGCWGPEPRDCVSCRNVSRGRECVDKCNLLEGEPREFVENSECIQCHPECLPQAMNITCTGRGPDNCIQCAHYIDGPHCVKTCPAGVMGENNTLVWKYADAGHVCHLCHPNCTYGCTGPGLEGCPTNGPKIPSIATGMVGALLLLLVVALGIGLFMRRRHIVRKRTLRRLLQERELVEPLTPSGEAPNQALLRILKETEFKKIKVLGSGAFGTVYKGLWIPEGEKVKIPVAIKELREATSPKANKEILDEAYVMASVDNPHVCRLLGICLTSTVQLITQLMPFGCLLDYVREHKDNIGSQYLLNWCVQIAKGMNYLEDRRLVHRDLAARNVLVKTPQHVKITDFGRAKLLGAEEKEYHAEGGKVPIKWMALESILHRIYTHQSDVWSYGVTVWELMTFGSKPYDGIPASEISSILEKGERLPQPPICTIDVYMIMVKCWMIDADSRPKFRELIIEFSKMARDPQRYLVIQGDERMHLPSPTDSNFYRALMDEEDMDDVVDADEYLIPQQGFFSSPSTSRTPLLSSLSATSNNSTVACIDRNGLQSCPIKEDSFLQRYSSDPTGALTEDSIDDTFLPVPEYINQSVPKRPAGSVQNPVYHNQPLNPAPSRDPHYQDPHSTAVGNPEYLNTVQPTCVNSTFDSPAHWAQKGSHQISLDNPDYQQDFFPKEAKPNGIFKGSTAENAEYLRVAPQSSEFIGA
Assay Overview: EGFR Tyrosine Kinase Inhibiting Activity Measurement 1 (ADP-Glo), L858R
Test Parameters: 1 h incubation with ATP/Poly(Glu, Tyr); >10: <50% enzyme inhibition at 10 μM
Give bare numbers, as −log10 of the molar value.

Observe how each entry below is paired with its result.
Entry Smiles	pIC50
FCCOc1cccc(Nc2ncnc3cnc(NCCN4CCOCC4)cc23)c1	6.19
Fc1ccc(Nc2ncnc3cnc(NCCN4CCOCC4)cc23)cn1	6.16
O=C(/C=C/CN1CCN(CCF)CC1)Nc1cc2c(Nc3cccc(Br)c3)ncnc2cn1	7.24

// below: pIC50 requested for another molecule
Query :: # input molecule: `FCCNc1cc2c(Nc3cccc(Br)c3)ncnc2cn1` ; wanted: its pIC50
Result :: 7.82

====

Subject Of Test: EGFR (T790M, L858R) (Homo sapiens, UniProt P00533, L858R/T790M)
Sequence (P00533 25-1210 T790M/L858R): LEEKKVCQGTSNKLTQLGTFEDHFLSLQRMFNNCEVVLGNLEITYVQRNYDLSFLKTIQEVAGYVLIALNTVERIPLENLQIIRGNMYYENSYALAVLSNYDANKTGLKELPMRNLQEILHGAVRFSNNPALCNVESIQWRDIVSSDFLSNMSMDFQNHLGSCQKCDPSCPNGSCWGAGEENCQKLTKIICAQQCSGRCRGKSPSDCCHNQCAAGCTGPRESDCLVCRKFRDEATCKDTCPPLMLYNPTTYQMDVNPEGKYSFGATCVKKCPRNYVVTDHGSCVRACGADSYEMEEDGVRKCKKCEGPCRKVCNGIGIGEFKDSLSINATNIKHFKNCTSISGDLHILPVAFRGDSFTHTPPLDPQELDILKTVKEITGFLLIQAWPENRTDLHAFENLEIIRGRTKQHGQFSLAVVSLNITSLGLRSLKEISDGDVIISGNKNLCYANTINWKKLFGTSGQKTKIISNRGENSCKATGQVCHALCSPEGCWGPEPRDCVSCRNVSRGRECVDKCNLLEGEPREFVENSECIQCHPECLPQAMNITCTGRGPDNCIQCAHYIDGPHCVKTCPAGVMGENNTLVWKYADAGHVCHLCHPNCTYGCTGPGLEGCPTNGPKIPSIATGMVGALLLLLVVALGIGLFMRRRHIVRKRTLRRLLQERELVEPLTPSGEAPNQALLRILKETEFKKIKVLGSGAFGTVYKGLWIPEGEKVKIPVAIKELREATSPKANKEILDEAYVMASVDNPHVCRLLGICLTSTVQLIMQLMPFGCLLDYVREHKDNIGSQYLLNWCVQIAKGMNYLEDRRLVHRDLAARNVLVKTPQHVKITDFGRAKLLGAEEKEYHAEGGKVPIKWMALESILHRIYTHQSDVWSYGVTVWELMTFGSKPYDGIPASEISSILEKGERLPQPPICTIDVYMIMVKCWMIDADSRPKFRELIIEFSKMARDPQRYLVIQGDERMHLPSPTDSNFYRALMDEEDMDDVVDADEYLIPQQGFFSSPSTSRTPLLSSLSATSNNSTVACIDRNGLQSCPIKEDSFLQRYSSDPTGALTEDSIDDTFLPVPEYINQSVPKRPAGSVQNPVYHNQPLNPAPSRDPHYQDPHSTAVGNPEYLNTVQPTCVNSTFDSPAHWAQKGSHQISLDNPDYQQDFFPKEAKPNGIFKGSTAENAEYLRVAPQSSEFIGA
Assay Overview: EGFR Tyrosine Kinase Inhibiting Activity Measurement 1 (ADP-Glo), DM
Test Parameters: 1 h incubation with ATP/Poly(Glu, Tyr); >10: <50% enzyme inhibition at 10 μM
Consider the following compounds; for each one, report its IC50.
Give bare numbers, in µM.

Entry Smiles	Value Units	IC50
O=C(/C=C/CN1CCN(CCF)CC1)Nc1cc2c(Nc3cccc(Br)c3)ncnc2cn1	µM	0.406

// switching to the query compound
Query :: Give its IC50 value. Item: `FCCNc1cc2c(Nc3cccc(Br)c3)ncnc2cn1`
Result :: 4.02

====

Subject Of Test: L858R/T790M-mutated EGFR (Homo sapiens, UniProt P00533, L858R/T790M)
Assay Overview: EGFR Tyrosine Kinase Inhibiting Activity Measurement 2, L858R/T790M
Test Parameters: 2 h incubation after ATP and Poly(Glu, Tyr) substrate were added; read-out: EGFR Kinase Inhibition: IC50, L858R/T790M
Outcome Measure: IC50 (nM)
Answers are plain numbers, in nM.

Query :: Quick check: IC50 of `O=C(/C=C/CN1CCN(CCF)CC1)Nc1cc2c(Nc3cccc(Br)c3)ncnc2cn1` ?
Result :: 326

====

Subject Of Test: EGFR (T790M) (Homo sapiens, UniProt P00533, T790M)
Sequence (P00533 25-1210 T790M): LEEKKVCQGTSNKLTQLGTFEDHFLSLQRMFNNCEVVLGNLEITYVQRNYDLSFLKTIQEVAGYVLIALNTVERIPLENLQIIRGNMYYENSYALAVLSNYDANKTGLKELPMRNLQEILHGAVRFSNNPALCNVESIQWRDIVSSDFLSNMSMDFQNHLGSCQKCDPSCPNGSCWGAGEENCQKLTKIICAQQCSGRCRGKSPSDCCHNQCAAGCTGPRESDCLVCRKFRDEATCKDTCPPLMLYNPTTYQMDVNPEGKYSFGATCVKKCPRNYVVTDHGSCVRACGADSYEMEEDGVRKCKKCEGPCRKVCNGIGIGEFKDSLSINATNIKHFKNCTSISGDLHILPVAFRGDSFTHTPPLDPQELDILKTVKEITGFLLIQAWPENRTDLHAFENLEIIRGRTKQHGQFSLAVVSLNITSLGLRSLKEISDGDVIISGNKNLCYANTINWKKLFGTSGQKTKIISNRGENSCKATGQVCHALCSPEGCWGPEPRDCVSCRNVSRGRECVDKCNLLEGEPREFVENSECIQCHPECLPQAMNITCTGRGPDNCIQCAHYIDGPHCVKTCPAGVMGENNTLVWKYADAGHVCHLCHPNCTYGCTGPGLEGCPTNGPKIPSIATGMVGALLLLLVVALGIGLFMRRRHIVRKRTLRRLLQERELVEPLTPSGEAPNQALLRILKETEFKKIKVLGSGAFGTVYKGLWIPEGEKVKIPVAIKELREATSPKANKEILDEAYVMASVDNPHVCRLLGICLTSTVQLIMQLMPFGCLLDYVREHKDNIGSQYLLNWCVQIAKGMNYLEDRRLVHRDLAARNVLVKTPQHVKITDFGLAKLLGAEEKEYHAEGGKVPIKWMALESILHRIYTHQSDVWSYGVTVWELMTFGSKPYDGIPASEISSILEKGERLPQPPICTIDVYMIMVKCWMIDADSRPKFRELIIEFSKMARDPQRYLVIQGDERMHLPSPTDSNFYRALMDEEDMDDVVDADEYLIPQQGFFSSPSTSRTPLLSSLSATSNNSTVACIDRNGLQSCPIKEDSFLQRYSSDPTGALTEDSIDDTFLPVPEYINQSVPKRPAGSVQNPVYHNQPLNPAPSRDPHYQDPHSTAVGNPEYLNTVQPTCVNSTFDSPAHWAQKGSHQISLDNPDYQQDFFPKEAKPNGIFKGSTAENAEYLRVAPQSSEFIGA
Assay Overview: EGFR Tyrosine Kinase Inhibiting Activity Measurement 1 (ADP-Glo), T790M
Test Parameters: 1 h incubation with ATP/Poly(Glu, Tyr); >10: <50% enzyme inhibition at 10 μM
Outcome Measure: pIC50
Answers are plain numbers, as −log10 of the molar value.

Entry Smiles	pIC50
O=C(/C=C/CN1CCN(CCF)CC1)Nc1cc2c(Nc3cccc(Br)c3)ncnc2cn1	6.39

Query :: Which pIC50 is reported for this molecule? `FCCNc1cc2c(Nc3cccc(Br)c3)ncnc2cn1`
Result :: 5.39

====

Subject Of Test: L858R-mutated EGFR (Homo sapiens, UniProt P00533, L858R)
Sequence (P00533 25-1210 L858R): as the sequence (P00533 25-1210 L858R) above
Assay Overview: EGFR Tyrosine Kinase Inhibiting Activity Measurement 2, L858R
Test Parameters: 2 h incubation after ATP and Poly(Glu, Tyr) substrate were added; read-out: EGFR Kinase Inhibition: IC50, L858R
Outcome Measure: IC50 (nM)
One number for each entry, in nM.

Query :: Need IC50 of `O=C(/C=C/CN1CCN(CCF)CC1)Nc1cc2c(Nc3cccc(Br)c3)ncnc2cn1` , thanks.
Result :: 15.6
